TARGET_UNDER_TEST: Recombinant human CBP containing the bromodomain (CBP-BD (1043-1159)) (Homo sapiens)
Construct: Recombinant human CBP bromodomain (CBP-BD (1043-1159))
Sequence (Q92793 1081-1197): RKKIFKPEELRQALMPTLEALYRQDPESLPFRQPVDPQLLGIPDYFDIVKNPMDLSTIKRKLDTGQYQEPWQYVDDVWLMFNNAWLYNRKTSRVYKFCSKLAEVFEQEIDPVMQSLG
ASSAY_COMMENT: CBP Alphascreen binding assay
CONDITION_INFO: read-out: CREBBP (CBP) IC50
REPORTED_METRIC: IC50

The following compounds each have a reported value; give each one's IC50.
1. Cc1nn(CC(=O)N(C)C)cc1-n1cc(-c2ccc(C(=O)O)cc2OC(F)(F)F)c2cc(-c3c(C)noc3C)cnc21
2. Cc1noc(C)c1-c1cnc2c(C(=O)c3cccc(OC(F)F)c3)cn(-c3ccnc(C(=O)O)c3)c2c1

0.0001 to 1 µM
0.0001 to 1 µM

###

TARGET_UNDER_TEST: Recombinant human BRD4 containing dual bromodomains (BRD4-BD12 (1-477)) (Homo sapiens, UniProt O60885)
Construct: Recombinant human BRD4 containing dual bromodomains (BRD4-BD12 (1-477))
ASSAY_COMMENT: BRD4 Alphascreen binding assay
pIC50: −log10 of the molar value.
REPORTED_METRIC: pIC50

Solved entries:
1. Cc1noc(C)c1-c1cnc2c(c1)c(-c1ccc(C(=O)O)c(O)c1)cn2C(c1ccccn1)C1CCCC1 (stereo not shown) [P-0030]
3.00 to 5.10
2. Cc1noc(C)c1-c1cnc2c(c1)c(-c1ccc(CC(=O)O)cc1)cn2-c1ccc(F)cc1F [P-0438]
3.00 to 5.10
3. CNS(=O)(=O)c1cccc(-c2cn(Cc3ccccc3)c3ncc(-c4c(C)noc4C)cc23)c1 [P-0082]
5.10 to 6.00

Below: the item to evaluate.
Give reported pIC50 value for Cc1noc(C)c1-c1cnc2c(c1)c(-c1ccc(C(=O)O)cc1OC1CCC1)cn2-c1cnc(N2CCC2)nc1 [P-0347] 3.00 to 5.10

###

TARGET_UNDER_TEST: Recombinant human BRD4 containing dual bromodomains (BRD4-BD12 (1-477)) (Homo sapiens, UniProt O60885)
Construct: Recombinant human BRD4 containing dual bromodomains (BRD4-BD12 (1-477))
ASSAY_COMMENT: BRD4 Alphascreen binding assay
pIC50: −log10 of the molar value.
REPORTED_METRIC: pIC50

The examples below pair each entry with its known result.
1) Cc1noc(C)c1-c1cnc2c(c1)c(-c1ccc(C(=O)O)cc1OC(F)(F)F)cn2-c1c(F)cccc1C#N
5.10 to 6.00
2) Cc1noc(C)c1-c1cnc2c(c1)c(-c1c(Cl)cc(C(=O)O)cc1OC(F)(F)F)cn2C(C1CCC1)C1CCC1
3.00 to 5.10

# next molecule below
Using known records, supply pIC50 for Cc1noc(C)c1-c1cnc2c(c1)c(-c1c(Cl)cc(C(=O)O)cc1OC(C)C)cn2C1(C)CCOCC1 3.00 to 5.10

###

Consider the following compounds; for each one, report its IC50.
TARGET_UNDER_TEST: Recombinant human CBP containing the bromodomain (CBP-BD (1043-1159)) (Homo sapiens)
Construct: Recombinant human CBP bromodomain (CBP-BD (1043-1159))
ASSAY_COMMENT: CBP Alphascreen binding assay
CONDITION_INFO: read-out: CREBBP (CBP) IC50

Some compounds with known IC50 results, for comparison:
1) Cc1noc(C)c1-c1cnc2c(c1)c(-c1ccc(C(=O)O)cc1OCC(F)F)cn2C(C1CC1)C1CC1 [P-0338]
0.0001 to 1 µM
2) Cc1noc(C)c1-c1cnc2c(c1)c(-c1ccc(C(=O)O)cc1OC(C)C)cn2C1(C)CCOC1 (centres unmarked) [P-0407]
0.0001 to 1 µM

Working through the 4 compounds below one at a time, give IC50 for each.
1. COc1cc(C(=O)O)cc(OC)c1-c1cn([C@@H](C)c2ccccn2)c2ncc(-c3c(C)noc3C)cc12 [P-0103]
2. COc1ccc(C(=O)O)cc1-c1cn(C(C)c2ccccc2)c2cc(-c3c(C)noc3C)cnc12 (centres unmarked) [P-0140]
3. Cc1noc(C)c1-c1cnc2c(CC3CCC3)cn(-c3ccc(C(=O)O)c4ccoc34)c2c1 [P-0110]
4. CCOc1cc(C(=O)OC)nc(OCC)c1-c1cn(-c2ccc(F)cc2F)c2ncc(-c3c(C)noc3C)cc12 [P-0432]

1: 0.0001 to 1 µM; 2: 1 to 8 µM; 3: 0.0001 to 1 µM; 4: 0.0001 to 1 µM
